Collected BT-474 pAkt (S473) % inhibition values appear next to each entry.
# Test target: Human HER3, endogenous, on human cancer cell lines (SK-Br-3, MCF7, BT-474) (human, UniProt P21860 20-1342)
# Sequence (P21860 20-1342): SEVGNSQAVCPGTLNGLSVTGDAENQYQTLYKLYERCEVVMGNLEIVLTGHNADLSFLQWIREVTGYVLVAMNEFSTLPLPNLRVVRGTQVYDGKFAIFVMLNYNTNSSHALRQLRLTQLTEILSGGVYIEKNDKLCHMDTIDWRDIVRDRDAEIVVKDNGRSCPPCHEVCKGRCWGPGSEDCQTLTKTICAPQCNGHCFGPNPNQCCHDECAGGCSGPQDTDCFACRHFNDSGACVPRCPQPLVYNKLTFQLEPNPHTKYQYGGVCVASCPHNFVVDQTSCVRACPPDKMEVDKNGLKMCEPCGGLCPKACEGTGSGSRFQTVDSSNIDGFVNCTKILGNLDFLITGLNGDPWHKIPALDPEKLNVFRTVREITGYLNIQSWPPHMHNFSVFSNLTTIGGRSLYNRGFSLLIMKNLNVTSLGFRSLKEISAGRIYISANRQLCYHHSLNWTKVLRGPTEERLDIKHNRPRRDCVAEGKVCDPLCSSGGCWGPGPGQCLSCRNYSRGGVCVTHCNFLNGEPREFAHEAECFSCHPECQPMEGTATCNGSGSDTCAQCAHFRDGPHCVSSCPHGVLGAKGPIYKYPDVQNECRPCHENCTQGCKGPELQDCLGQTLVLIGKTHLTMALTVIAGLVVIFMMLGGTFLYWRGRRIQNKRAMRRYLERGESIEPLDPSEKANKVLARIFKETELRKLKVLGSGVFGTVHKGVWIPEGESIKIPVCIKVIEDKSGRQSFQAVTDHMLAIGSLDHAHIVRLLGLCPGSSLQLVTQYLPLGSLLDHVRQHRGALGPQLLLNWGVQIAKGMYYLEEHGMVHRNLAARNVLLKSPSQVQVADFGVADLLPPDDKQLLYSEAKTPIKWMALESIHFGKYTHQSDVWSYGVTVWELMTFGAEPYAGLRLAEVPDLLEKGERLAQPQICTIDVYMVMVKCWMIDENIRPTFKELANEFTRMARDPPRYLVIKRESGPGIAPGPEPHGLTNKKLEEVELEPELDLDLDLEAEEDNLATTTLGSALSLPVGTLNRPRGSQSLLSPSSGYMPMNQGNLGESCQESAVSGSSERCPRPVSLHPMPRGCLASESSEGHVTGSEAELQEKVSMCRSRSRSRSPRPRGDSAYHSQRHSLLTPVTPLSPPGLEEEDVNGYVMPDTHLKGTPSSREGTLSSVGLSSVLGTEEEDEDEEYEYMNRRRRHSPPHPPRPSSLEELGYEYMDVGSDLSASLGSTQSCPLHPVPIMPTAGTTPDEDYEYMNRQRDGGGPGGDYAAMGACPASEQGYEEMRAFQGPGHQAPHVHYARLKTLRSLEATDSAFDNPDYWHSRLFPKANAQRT
# Protocol summary: cell-based or functional assay
Provide only the numeric value, understood in %.

Example binders with recorded BT-474 pAkt (S473) % inhibition:
>>> measured_value("MOR13767 (antibody, human IgG1, kappa, V domains shown, tested as IgG) VH: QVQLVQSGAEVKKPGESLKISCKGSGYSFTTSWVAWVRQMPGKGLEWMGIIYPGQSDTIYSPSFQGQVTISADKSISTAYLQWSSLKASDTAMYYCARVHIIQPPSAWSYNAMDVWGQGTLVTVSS VL: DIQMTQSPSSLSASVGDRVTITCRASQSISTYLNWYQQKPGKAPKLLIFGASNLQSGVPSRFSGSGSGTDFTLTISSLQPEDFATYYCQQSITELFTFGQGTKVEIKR")
82
>>> measured_value("MOR12616 (antibody, human IgG1, kappa, V domains shown, tested as IgG) VH: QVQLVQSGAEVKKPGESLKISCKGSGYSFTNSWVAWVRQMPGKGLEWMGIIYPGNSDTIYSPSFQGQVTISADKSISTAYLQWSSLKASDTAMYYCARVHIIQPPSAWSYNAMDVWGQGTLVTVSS VL: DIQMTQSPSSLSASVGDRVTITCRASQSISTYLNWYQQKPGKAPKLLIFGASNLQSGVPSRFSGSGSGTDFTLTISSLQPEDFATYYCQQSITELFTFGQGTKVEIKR")
78
>>> measured_value("MOR13752 (antibody, human IgG1, kappa, V domains shown, tested as IgG) VH: QVQLVQSGAEVKKPGESLKISCKGSGYSFTNYWVAWVRQMPGKGLEWMGIIYPGGSDTIYSPSFQGQVTISADKSISTAYLQWSSLKASDTAMYYCARVHIIQPPSAWSYNAMDVWGQGTLVTVSS VL: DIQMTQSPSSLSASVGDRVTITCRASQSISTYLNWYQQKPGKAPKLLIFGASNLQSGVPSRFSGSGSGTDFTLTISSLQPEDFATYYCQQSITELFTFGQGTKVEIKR")
76

Please examine the following record next.
**Q:** Dear colleague, I am looking for the recorded BT-474 pAkt (S473) % inhibition of the following binder: MOR13765 (antibody, human IgG1, kappa, V domains shown, tested as IgG) VH: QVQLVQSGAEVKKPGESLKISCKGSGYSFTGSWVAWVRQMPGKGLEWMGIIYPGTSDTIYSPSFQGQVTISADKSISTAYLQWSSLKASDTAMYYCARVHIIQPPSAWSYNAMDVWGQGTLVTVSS VL: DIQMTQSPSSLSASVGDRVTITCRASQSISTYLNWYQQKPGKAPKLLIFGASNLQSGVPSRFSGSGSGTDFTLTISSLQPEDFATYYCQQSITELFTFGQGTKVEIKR
**A:** 73
